Entries and their measured Ratio (-BP/+BP), DF-25000007 follow.
Biological target: T1, IL-18 binding protein (IL-18BP) (UniProt O95998 31-194)
T1 sequence (looked up): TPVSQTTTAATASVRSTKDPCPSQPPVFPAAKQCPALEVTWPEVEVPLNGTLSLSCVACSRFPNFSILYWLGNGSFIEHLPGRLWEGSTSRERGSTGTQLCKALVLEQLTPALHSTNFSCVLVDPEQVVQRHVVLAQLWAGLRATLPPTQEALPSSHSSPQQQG
Test: cell-based or functional assay

{"Binder": "IL-18 variant G3L, E6N, I22M, T63V, N91T, R104P (ligand) YFLKLNSKLSVIRNLNDQVLFMDQGNRPLFEDMTDSDMRDNAPRTIFIISMYKDSQPRGMAVVISVKSEKISTLSSENKIISFKEMNPPDTIKDTKSDIIFFQPSVPGHDNKMQFESSSYEGYFLASEKERDLFKLILKKEDELGDRSIMFTVQNED", "Ratio (-BP/+BP), DF-25000007": 0.97}
{"Binder": "IL-18 variant K53T, D54H, S55V, T63A, N91K (ligand) YFGKLESKLSVIRNLNDQVLFIDQGNRPLFEDMTDSDMRDNAPRTIFIISMYTHVQPRGMAVAISVKSEKISTLSSENKIISFKEMNPPDKIKDTKSDIIFFQRSVPGHDNKMQFESSSYEGYFLASEKERDLFKLILKKEDELGDRSIMFTVQNED", "Ratio (-BP/+BP), DF-25000007": 1.58}
